# MEASURED_ON: UniProt P29317
# Sequence (P29317 whole entry, looked up): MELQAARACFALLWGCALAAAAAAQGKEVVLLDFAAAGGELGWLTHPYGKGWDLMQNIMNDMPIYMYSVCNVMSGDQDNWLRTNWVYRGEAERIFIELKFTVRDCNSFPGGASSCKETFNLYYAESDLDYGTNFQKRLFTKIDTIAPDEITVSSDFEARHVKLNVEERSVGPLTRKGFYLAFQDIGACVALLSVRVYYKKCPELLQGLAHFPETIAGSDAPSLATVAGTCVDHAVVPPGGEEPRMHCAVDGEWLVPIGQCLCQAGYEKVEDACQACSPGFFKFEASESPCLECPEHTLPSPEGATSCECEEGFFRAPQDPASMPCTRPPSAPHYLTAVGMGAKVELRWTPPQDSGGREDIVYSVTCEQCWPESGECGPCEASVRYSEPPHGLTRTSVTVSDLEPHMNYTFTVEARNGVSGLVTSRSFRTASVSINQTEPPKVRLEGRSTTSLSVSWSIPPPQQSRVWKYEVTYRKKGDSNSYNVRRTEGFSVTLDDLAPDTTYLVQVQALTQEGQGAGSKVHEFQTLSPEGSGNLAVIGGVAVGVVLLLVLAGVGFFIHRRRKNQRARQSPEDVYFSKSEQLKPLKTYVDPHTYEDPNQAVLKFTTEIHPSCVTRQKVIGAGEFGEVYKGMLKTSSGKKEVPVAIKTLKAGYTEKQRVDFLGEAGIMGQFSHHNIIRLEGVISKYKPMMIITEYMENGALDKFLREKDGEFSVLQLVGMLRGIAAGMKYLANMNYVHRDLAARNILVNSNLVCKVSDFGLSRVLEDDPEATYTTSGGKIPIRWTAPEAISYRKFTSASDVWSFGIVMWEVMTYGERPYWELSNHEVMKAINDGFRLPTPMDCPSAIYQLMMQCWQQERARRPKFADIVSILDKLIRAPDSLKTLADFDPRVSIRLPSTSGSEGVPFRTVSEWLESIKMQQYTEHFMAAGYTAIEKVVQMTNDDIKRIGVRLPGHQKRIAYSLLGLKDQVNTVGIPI
# ASSAY_EXPLANATION: radiometric filter-binding kinase assay
# CONDITION_PARAMETERS: compound 0.1 µM

- COMPOUND: "CNc1nc(-c2ccc3c(N)n[nH]c3c2)cc(N2C[C@@H](C(=O)NC3CCCCC3)CC[C@H]2C)n1"
  MEASURED_ON: "UniProt P29317"
  residual activity / %: 118
- COMPOUND: "COc1ccc(N(C(=O)Nc2c(C)cccc2C)c2cc(Nc3ccc(N4CCN(C)CC4)cc3)ncn2)c(OC)c1"
  MEASURED_ON: "UniProt P29317"
  residual activity / %: 15
- COMPOUND: "COc1cc(O)c2c(c1)[C@H]1OC1C[C@H](O)[C@H](O)C(=O)/C=C\\C[C@H](C)OC2=O (some centres undefined)"
  MEASURED_ON: "UniProt P29317"
  residual activity / %: 98
- COMPOUND: "CN(C)C/C=C/C(=O)Nc1cccc(C(=O)Nc2ccc(Nc3nccc(-c4cccnc4)n3)cc2)c1"
  MEASURED_ON: "UniProt P29317"
  residual activity / %: 110
